- SYSTEM TESTED: Adenosine A2 receptor (Rattus norvegicus, UniProt P29276+P30543)
- PROCEDURE DETAILS: Binding affinity against Adenosine A2 receptor from rat striatal membrane using [3H]NECA as radioligand
ASSAY READOUT: Ki (µM)
Your answer is read as µM, so omit the unit and give the number.

> print(dat)
                        molecule  assay.readout  unit.descriptor  obs.value
1  Oc1ncnc2c1c1ccccc1n2-c1ccccc1             Ki               µM       1.44

Report Ki for "Cc1[nH]c2ncnc(O)c2c1C"
176

Identify Ki associated with the molecule "Cc1c(C)n(-c2ccccc2)c2ncnc(N)c12"
123

Hello, please tell me recorded Ki for this one: "Cc1c(C)n([C@H](C)c2ccccc2)c2nc(-c3ccccc3)nc(N)c12"
3.71

Identify measured Ki corresponding to "c1ccc(-n2c3ccccc3c3c(NC4CCCCC4)ncnc32)cc1"
133

State, in one line, measured Ki of "Oc1ncnc2c1c1c(n2-c2ccccc2)CCCC1"
1.35

Please look at this molecule and report its Ki: "Cc1[nH]c2nc(-c3ccccc3Cl)nc(N)c2c1C"
85.6

Give Ki for the following molecule: "Cc1nc(N)c2c(C)c(C)n(-c3ccccc3)c2n1"
203

Given the molecule Cc1c(C)n(C(C)c2ccccc2)c2nc(-c3ccccc3Cl)nc(N)c12 (stereo unspecified) , write its reported Ki.
28.1

Consider the molecule "CS(=O)(=O)c1nc(S(C)(=O)=O)c2c3c(n(-c4ccccc4)c2n1)CCCC3" and give its recorded Ki.
157

Determine its reported Ki: "Cc1c(C)n(-c2ccccc2)c2nc(-c3ccccc3)nc(N)c12"
0.024
